B1: Strep-His-TEV-HaloTag-3C-Xenopus γTuNA (Xenopus Cdk5rap2 aa 56–101), wildtype [Xenopus laevis] / itself (parent)
chain: MKDFEKQIAELKKENFNLKLRIYFLEEQVQQKCDNSSEDLYRMNIE

variants of: B1; test: size-exclusion chromatography (self-association / dimerization); details: with itself; 50 µM (monomer); Superdex 200 increase 10/300 GL; read off a plot
value.kind: screen value (mL)
The reply should be a number in mL, with the unit left off.

Complete the entry with screen value for chain 1 L11A
14

Complete the entry with screen value for chain 1 I8D L11D
15

This collection of values is drawn from paper PMC9859039.
